Test system: corn
Assay: Test B pre/postemergence corn
Type: in vivo, Zea mays
Settings: Postemergence, Rate 125 g/ha; scale 0 to 10, 0 is no effect, 10 is complete control
measuredQuantity: Plant response rating, Corn

                                   molecule  recordedvalue
0  CC(C)N(C(=O)n1oc(=O)n(C2(C)CC2)c1=O)c1ccccc1              2
1  CC(C)Cn1c(=O)on(C(=O)N(c2ccc(F)cc2F)C(C)C)c1=O              0
2  CC(C)N(C(=O)n1oc(=O)[nH]c1=O)c1ccc(F)cc1F              0
3  CC(C)N(C(=O)n1oc(=O)n(C(C)CCl)c1=O)c1ccccc1 (centres unmarked)              0
4  CC(C)N(C(=O)n1oc(=O)n(C2CCCCCC2)c1=O)c1ccccc1              0

###

Quick list: Wild oats plant response rating per entry.
Tested on: wild oat
Experiment: Test B pre/postemergence wild oat
Type: in vivo, Avena fatua
Details: Postemergence, Rate 500 g/ha; scale of 0 to 10 where 0 is no effect and 10 is complete control
measuredQuantity: Wild oats plant response rating

>>> print(df.to_string())
                                   compound  testedtarget                 measuredquantity  recordedvalue
0  CC(C)N(C(=O)n1oc(=O)n(CCCC(F)(F)F)c1=O)c1ccc(F)cc1 [Compound 398]      wild oat  Wild oats plant response rating              0
1  CC(C)Cn1c(=O)on(C(=O)N(c2ccc(F)cc2F)C(C)C)c1=O [Compound 394]      wild oat  Wild oats plant response rating              6
2  CC(C)N(C(=O)n1oc(=O)n(CC2=NOCCC2)c1=O)c1ccccc1 [Compound 430]      wild oat  Wild oats plant response rating              0
3  Cc1nc(C)c(C(C)n2c(=O)on(C(=O)N(c3ccc(F)cc3F)C(C)C)c2=O)s1 (stereo not shown) [Compound 443]      wild oat  Wild oats plant response rating              0

###

Tested on: blackgrass
Assay: Test B pre/postemergence blackgrass
Format: in vivo, Alopecurus myosuroides
Settings: Rate 62 g/ha, Postemergence; scale of 0 to 10 where 0 is no effect and 10 is complete control
Item-by-item account of Blackgrass plant response rating
measuredQuantity: Blackgrass plant response rating

>>> df
                                   compound  recordedvalue
0  CC(C)N(C(=O)n1oc(=O)n([C@@H]2C[C@H]2C)c1=O)c1ccc(F)cc1 (relative stereo) [Compound 392]              7
1  CC(C)N(C(=O)n1oc(=O)n(C)c1=O)c1ccccc1 [Compound 409]              6
2  COCCOCn1c(=O)on(C(=O)N(c2ccc(F)cc2)C(C)C)c1=O [Compound 220]              5
3  Cc1ccccc1-n1c(=O)on(C(=O)N(c2ccccc2F)C(C)C)c1=O [Compound 204]              0
4  CC(C)N(C(=O)n1oc(=O)n(C2CCC2)c1=O)c1ccc(F)cc1 [Compound 350]              4
5  CCn1c(=O)on(C(=O)N(c2ccc(F)cc2)C(C)C)c1=O [Compound 107]              7
6  CC(C)N(C(=O)n1oc(=O)n(CCC#N)c1=O)c1ccc(F)cc1F [Compound 433]              2
